- TEST PARAMETERS: in 2-ethoxyethanol, 288.15 K
MEASUREMENT KIND: solubility (mole fraction)
Please reply with the number alone, leaving off any unit.

Answer with the recorded solubility (mole fraction) of `CC(=O)N1CCN(c2ccc(O)cc2)CC1` only. 0.0059

* * *

- TEST PARAMETERS: in acetonitrile, 283.15 K
MEASUREMENT KIND: solubility (mole fraction)

Provide only the value of recorded solubility (mole fraction) for `CC(=O)N1CCN(c2ccc(O)cc2)CC1` 0.001

* * *

- TEST PARAMETERS: in acetonitrile, 323.15 K
MEASUREMENT KIND: solubility (mole fraction)
Reply with the value as a number alone.

Let me know recorded solubility (mole fraction) for `CC(=O)N1CCN(c2ccc(O)cc2)CC1` , thanks. 0.00433

* * *

- TEST PARAMETERS: in 2-ethoxyethanol, 283.15 K
MEASUREMENT KIND: solubility (mole fraction)
A bare number is all that is needed in reply.

Give reported solubility (mole fraction) value for `CC(=O)N1CCN(c2ccc(O)cc2)CC1` 0.00486

* * *

- TEST PARAMETERS: in 2-ethoxyethanol, 303.15 K
MEASUREMENT KIND: solubility (mole fraction)
Respond using a number only.

Give the value of solubility (mole fraction) reported for the following: `CC(=O)N1CCN(c2ccc(O)cc2)CC1` 0.00963

* * *

- TEST PARAMETERS: in 2-ethoxyethanol, 298.15 K
MEASUREMENT KIND: solubility (mole fraction)
Please give only the number in your answer, with no unit.

Specify reported solubility (mole fraction) for the compound shown: `CC(=O)N1CCN(c2ccc(O)cc2)CC1` 0.00829

* * *

- TEST PARAMETERS: in ethanol, 303.15 K
MEASUREMENT KIND: solubility (mole fraction)

Tell me its solubility (mole fraction) given `CC(=O)N1CCN(c2ccc(O)cc2)CC1` as the entry. 0.00467

* * *

- TEST PARAMETERS: in n-propanol, 298.15 K
MEASUREMENT KIND: solubility (mole fraction)
Please give only the number in your answer, with no unit.

State, in one line, measured solubility (mole fraction) of `CC(=O)N1CCN(c2ccc(O)cc2)CC1` 0.00306

* * *

- TEST PARAMETERS: in ethanol, 288.15 K
MEASUREMENT KIND: solubility (mole fraction)
Number, no unit, nothing else.

Identify the reported solubility (mole fraction) for the following entry. `CC(=O)N1CCN(c2ccc(O)cc2)CC1` 0.00273

* * *

- TEST PARAMETERS: in methanol, 323.15 K
MEASUREMENT KIND: solubility (mole fraction)
# answer = number (no unit)

Quickly give me recorded solubility (mole fraction) for `CC(=O)N1CCN(c2ccc(O)cc2)CC1` 0.0111

* * *

- TEST PARAMETERS: in methanol, 288.15 K
MEASUREMENT KIND: solubility (mole fraction)
I'd appreciate a reply containing only the number, no unit.

Tell me measured solubility (mole fraction) for `CC(=O)N1CCN(c2ccc(O)cc2)CC1` please. 0.00346

* * *

- TEST PARAMETERS: in isopropanol, 303.15 K
MEASUREMENT KIND: solubility (mole fraction)
Reply briefly: the number, and no unit.

Output measured solubility (mole fraction) for this item: `CC(=O)N1CCN(c2ccc(O)cc2)CC1` 0.00327
